# TARGET_UNDER_TEST: human orexin 1 receptor (Homo sapiens (Human), UniProt O43613)
# Sequence (O43613 whole entry): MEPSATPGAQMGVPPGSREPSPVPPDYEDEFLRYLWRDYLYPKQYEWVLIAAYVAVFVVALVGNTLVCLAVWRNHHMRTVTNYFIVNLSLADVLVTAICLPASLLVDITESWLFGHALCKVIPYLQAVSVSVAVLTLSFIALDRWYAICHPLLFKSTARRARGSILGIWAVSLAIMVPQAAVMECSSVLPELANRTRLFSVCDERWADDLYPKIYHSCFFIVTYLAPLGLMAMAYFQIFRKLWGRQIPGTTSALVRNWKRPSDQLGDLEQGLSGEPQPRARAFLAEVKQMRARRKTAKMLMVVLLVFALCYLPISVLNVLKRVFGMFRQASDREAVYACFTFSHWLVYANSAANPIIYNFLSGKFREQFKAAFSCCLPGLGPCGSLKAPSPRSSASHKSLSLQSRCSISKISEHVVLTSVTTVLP
# PROCEDURE_TEXT: Human orexin 1 receptor radioligand binding (competitive binding, CHO membranes)
QUANTITY: Ki (µM)
Numbers only, in µM.

// known answers, use as guide
molecule="O=C(c1c(F)cccc1-c1ncccn1)N1C2CCC1C(Oc1ccc(C(F)(F)F)cn1)C2 (racemic)" unit_tag=µM recorded_result=0.18
molecule="O=C(c1cc(F)ccc1-n1nccn1)N1C2CCC1C(COc1ccc(F)cn1)C2 (racemic)" unit_tag=µM recorded_result=0.06
molecule="O=C(c1ccccc1-c1ncc(F)cn1)N1C2CCC1C(Oc1ccc(C(F)(F)F)cn1)C2 (racemic)" unit_tag=µM recorded_result=0.073
molecule="Cc1cccc(C(=O)N2C3CCC2C(Oc2cnc(C(F)(F)F)cn2)C3)c1-n1nccn1 (racemic)" unit_tag=µM recorded_result=0.237
molecule="Cc1cccc(C(=O)N2C3CCC2C(Oc2ccc(C(F)(F)F)cn2)C3)c1-c1ncco1 (racemic)" unit_tag=µM recorded_result=0.029
molecule="[2H]C1(Nc2cnc(C(F)(F)F)cn2)CC2CCC1N2C(=O)c1cccc(F)c1-c1ncccn1 (stereo not shown)" unit_tag=µM recorded_result=0.014

With those in mind, consider the next molecule.
Ki measured on O=C(c1cccc(F)c1-c1ncc(F)cn1)N1C2CCC1C(Oc1ccc(C(F)(F)F)cn1)C2 (racemic) = 0.172

====

# TARGET_UNDER_TEST: human orexin 1 receptor (Homo sapiens (Human), UniProt O43613)
# PROCEDURE_TEXT: Human orexin 1 receptor radioligand binding (competitive binding, CHO membranes)
# CONDITION_INFO: read-out: hOX1 Ki
Would you mind telling me the reported Ki of each entry?
Answers are plain numbers, in nM.

Here is how some molecules turned out for Ki.
sample_smiles=Cc1ccc(-n2nccn2)c(C(=O)N2[C@@H]3CC[C@H]2[C@H](Nc2ncc(C(F)(F)F)cc2F)C3)n1 unit_tag=nM recorded_result=84
sample_smiles=O=C(c1cccc(F)c1-c1ccccn1)N1[C@@H]2CC[C@H]1[C@H](Nc1ccc(C(F)(F)F)cn1)C2 unit_tag=nM recorded_result=14
sample_smiles=O=C(c1cccc(Cl)c1-c1ncccn1)N1[C@@H]2CC[C@H]1[C@H](Nc1ccc(C(F)(F)F)cn1)C2 unit_tag=nM recorded_result=4

Memo: `O=C(c1cccc(F)c1-c1ncc(F)cn1)N1[C@@H]2CC[C@H]1[C@H](Nc1ncc(C(F)(F)F)cc1F)C2` , reported Ki: 50

====

# TARGET_UNDER_TEST: human orexin 2 receptor (Homo sapiens (Human), UniProt O43614)
# Sequence (O43614 whole entry): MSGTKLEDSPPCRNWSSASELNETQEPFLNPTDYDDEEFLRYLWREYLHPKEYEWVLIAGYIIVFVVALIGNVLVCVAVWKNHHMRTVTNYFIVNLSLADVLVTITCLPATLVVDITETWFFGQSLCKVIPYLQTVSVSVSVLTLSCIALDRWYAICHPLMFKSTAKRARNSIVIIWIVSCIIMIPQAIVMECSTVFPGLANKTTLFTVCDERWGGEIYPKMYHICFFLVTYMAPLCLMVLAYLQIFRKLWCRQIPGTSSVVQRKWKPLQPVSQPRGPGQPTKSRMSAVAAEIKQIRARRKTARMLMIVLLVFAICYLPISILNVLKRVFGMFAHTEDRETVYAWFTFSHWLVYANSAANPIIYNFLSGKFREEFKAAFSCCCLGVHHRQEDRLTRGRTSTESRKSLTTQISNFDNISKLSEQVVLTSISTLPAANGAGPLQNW
# PROCEDURE_TEXT: Human orexin 2 receptor radioligand binding ([3H]-EMPA competition, HEK293 membranes)
# CONDITION_INFO: human orexin 2 receptor; Table 2, averages from between 2-20 runs; read-out: hOX2 Ki
QUANTITY: Ki (nM)
Answers are plain numbers, in nM.

compound="O=C(c1ccccc1-c1ncccn1)N1[C@@H]2CC[C@H]1[C@H](Nc1ncc(C(F)(F)F)cc1Cl)C2 [Example 386]" recorded_result=499
compound="O=C(c1cccc(F)c1-c1ccccn1)N1[C@@H]2CC[C@H]1[C@H](Nc1cnc(C(F)(F)F)cn1)C2 [Example 408]" recorded_result=150
compound="O=C(c1c(F)cccc1-c1ncco1)N1[C@@H]2CC[C@H]1[C@H](Nc1cnc(C(F)(F)F)cn1)C2 [Example 411]" recorded_result=622

For every record below, what is its Ki?
1. O=C(c1cccc(F)c1-n1nccn1)N1[C@@H]2CC[C@H]1[C@H](Nc1ncc(Br)cn1)C2 [Example 317]
2. Cc1ccc(-c2ncccn2)c(C(=O)N2[C@@H]3CC[C@H]2[C@H](Nc2cnc(C(F)(F)F)cn2)C3)n1 [Example 403]
3. O=C(c1cccc(F)c1-n1nccn1)N1[C@@H]2CC[C@H]1[C@H](Nc1ccc(C(F)F)cn1)C2 [Example 388]
4. O=C(c1cccc(F)c1-c1ncccn1)N1[C@@H]2CC[C@H]1[C@H](Nc1nnc(C(F)(F)F)s1)C2 [Example 419]
5. O=C(c1ccc(F)cc1-n1nccn1)N1[C@@H]2CC[C@H]1[C@H](Nc1ccc(C(F)(F)F)cn1)C2 [Example 368]

[1600, 431, 1100, 7400, 2600]

====

# TARGET_UNDER_TEST: UniProtKB P56718
# Sequence (P56718 whole entry): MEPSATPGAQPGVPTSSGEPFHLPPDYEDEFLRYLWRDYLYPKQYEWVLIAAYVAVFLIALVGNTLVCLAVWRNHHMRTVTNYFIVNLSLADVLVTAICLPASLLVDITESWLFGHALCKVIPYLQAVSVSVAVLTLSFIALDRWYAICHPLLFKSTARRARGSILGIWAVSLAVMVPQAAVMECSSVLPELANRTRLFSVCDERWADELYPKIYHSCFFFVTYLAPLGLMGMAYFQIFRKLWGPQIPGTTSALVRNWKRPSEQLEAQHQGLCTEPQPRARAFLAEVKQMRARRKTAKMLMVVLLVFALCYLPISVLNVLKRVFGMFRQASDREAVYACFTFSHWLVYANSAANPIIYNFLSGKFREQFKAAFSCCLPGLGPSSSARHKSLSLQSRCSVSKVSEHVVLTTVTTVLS
# PROCEDURE_TEXT: Rat orexin 1 receptor radioligand binding (competitive binding, HEK293 membranes)
QUANTITY: Ki (nM)
Numbers only, in nM.

compound="O=C(c1cccc(F)c1-n1nccn1)N1C2CCC1C(COc1nccc(C(F)(F)F)n1)C2 (racemic) [Example 134]" recorded_result=1500
compound="O=C(c1cccc(F)c1-c1ncccn1)N1[C@@H]2CC[C@H]1[C@H](Nc1cnc(C(F)(F)F)cn1)C2 [Example 238]" recorded_result=15

Next item in the queue.
Documented Ki of O=C(c1cccc(F)c1-n1nccn1)N1C2CCC1C(Oc1ccc(C(F)(F)F)cn1)C2 (racemic) [Example 423] : 202

====

# TARGET_UNDER_TEST: human orexin 2 receptor (Homo sapiens (Human), UniProt O43614)
# PROCEDURE_TEXT: Human orexin 2 receptor radioligand binding ([3H]-EMPA competition, HEK293 membranes)
# CONDITION_INFO: human orexin 2 receptor; Table 2, averages from between 2-20 runs; read-out: hOX2 Ki
QUANTITY: Ki (nM)
One number for each entry, in nM.

sample_smiles=Cc1cccc(C(=O)N2[C@@H]3CC[C@H]2[C@H](Nc2ccc(C(F)(F)F)cn2)C3)c1-c1ncccn1 quantity=Ki recorded_result=234

// next item, Ki requested
Entry under test: `O=C(c1cccc(F)c1-n1nccn1)N1[C@@H]2CC[C@H]1[C@H](Nc1ncc(C(F)(F)F)cc1Cl)C2` . Its Ki was 767

====

# TARGET_UNDER_TEST: human orexin 2 receptor (Homo sapiens (Human), UniProt O43614)
# PROCEDURE_TEXT: Human orexin 2 receptor radioligand binding ([3H]-EMPA competition, HEK293 membranes)
# CONDITION_INFO: human orexin 2 receptor; Table 2, averages from between 2-20 runs; read-out: hOX2 Ki
QUANTITY: pKi
Numbers only, as −log10 of the molar value.

molecule=O=C(c1cc(F)ccc1-c1ncco1)N1[C@@H]2CC[C@H]1[C@H](Nc1cnc(C(F)(F)F)cn1)C2 target_under_test="human orexin 2 receptor (Homo sapiens (Human), UniProt O43614)" recorded_result=6.00
molecule=Cc1cccc(C(=O)N2[C@@H]3CC[C@H]2[C@H](Nc2ccc(Br)cn2)C3)c1-n1nccn1 target_under_test="human orexin 2 receptor (Homo sapiens (Human), UniProt O43614)" recorded_result=6.40
molecule="O=C(c1cccc(F)c1-n1nccn1)N1C2CCC1C(Oc1cnc3ccccc3n1)C2 (racemic)" target_under_test="human orexin 2 receptor (Homo sapiens (Human), UniProt O43614)" recorded_result=5.72

Lab note: each molecule below needs its pKi filled in.
1. O=C(c1ncccc1-c1ncccn1)N1[C@@H]2CC[C@H]1[C@H](Nc1cnc(C(F)(F)F)cn1)C2
2. Cc1cccc(C(=O)N2[C@@H]3CC[C@H]2[C@H](Nc2ccc(C#N)cn2)C3)c1-c1ncco1
3. O=C(c1cccc(F)c1-c1ncccn1)N1C2CCC1C(Oc1ccc(C(F)(F)F)cn1)C2 (racemic)
4. O=C(c1cccc(F)c1-c1ccccn1)N1[C@@H]2CC[C@H]1[C@H](Nc1ccc(C(F)(F)F)cn1)C2

1. 6.01
2. 5.68
3. 5.20
4. 6.59

Hi there! I need pKi for each item below, if you can.
1. O=C(c1cccc(F)c1-c1ncc(F)cn1)N1[C@@H]2CC[C@H]1[C@H](Nc1cnc(C(F)(F)F)cn1)C2
2. O=C(c1c(F)cccc1-c1ncccn1)N1[C@@H]2CC[C@H]1[C@H](Nc1ccc(C(F)(F)F)cn1)C2

1. 5.68
2. 6.38

Quick batch: pKi for everything below.
1. O=C(c1cccc(F)c1-c1ncccn1)N1[C@@H]2CC[C@H]1[C@H](Nc1ccc(C(F)F)cn1)C2
2. O=C(c1ccccc1-c1ncc(F)cn1)N1[C@@H]2CC[C@H]1[C@H](Nc1ncc(C(F)(F)F)cc1Cl)C2
3. O=C(c1ccccc1-c1ncc(F)cn1)N1C2CCC1C(Oc1ccc(C(F)(F)F)cn1)C2 (racemic)
4. O=C(c1ncccc1-c1ncccn1)N1[C@@H]2CC[C@H]1[C@H](Nc1ccc(C(F)(F)F)cn1)C2
5. O=C(c1cc(F)ccc1-c1ncccn1)N1[C@@H]2CC[C@H]1[C@H](Nc1ccc(C(F)(F)F)cn1)C2
6. O=C(c1cccc(F)c1-n1nccn1)N1[C@@H]2CC[C@H]1[C@H](Nc1cnc(Br)cn1)C2

1. 6.13
2. 6.16
3. 5.60
4. 6.10
5. 6.21
6. 6.00

Below is a list of molecules. For each, state its recorded pKi.
1. O=C(c1cccc(Cl)c1-c1ncccn1)N1[C@@H]2CC[C@H]1[C@H](Nc1cnc(C(F)(F)F)cn1)C2
2. O=C(c1cccc(Cl)c1-c1ncccn1)N1[C@@H]2CC[C@H]1[C@H](Nc1ccc(C(F)(F)F)cn1)C2
3. O=C(c1ncccc1-c1ncccn1)N1[C@@H]2CC[C@H]1[C@H](Nc1ncc(C(F)(F)F)cc1Cl)C2
4. Cc1cccc(C(=O)N2[C@@H]3CC[C@H]2[C@H](Nc2cnc(Br)cn2)C3)c1-c1ncccn1
5. Cc1cccc(C(=O)N2[C@@H]3CC[C@H]2[C@H](Nc2ccc(Br)cn2)C3)c1-c1ncco1
6. O=C(c1cccc(F)c1-c1ncccn1)N1[C@@H]2CC[C@H]1[C@H](Nc1ncc(C(F)(F)F)cc1F)C2
7. Cc1cccc(C(=O)N2[C@@H]3CC[C@H]2[C@H](Nc2ccc(Br)cn2)C3)c1-c1ncccn1

1. 7.03
2. 6.96
3. 5.96
4. 6.42
5. 6.73
6. 5.96
7. 6.34

Lookup result for `Cc1cccc(C(=O)N2[C@@H]3CC[C@H]2[C@H](Nc2cnc(C(F)(F)F)cn2)C3)c1-c1ncc(F)cn1` ; measured pKi: 6.52
